Source listed as paper PMC4052313.

# ASSAYED_SYSTEM: PKCδ-C1B peptide (Mus musculus)
# Construct: made in house; host or cells: chemical peptide synthesis (no expression host)
# Sequence (P28867 231-281 limits assumed): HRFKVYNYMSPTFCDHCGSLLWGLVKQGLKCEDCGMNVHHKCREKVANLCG
# ASSAY_TEXT: Competition binding assay with [3H]PDBu using synthetic PKCδ-C1B peptide
pKi: −log10 of the molar value.

- MOLECULE: "C=C[C@@](C)(CCC=C(C)C)c1ccc2c3c(c[nH]c13)C[C@@H](CO)NC(=O)[C@H](C(C)C)N2C"
  ASSAYED_SYSTEM: "PKCδ-C1B peptide (Mus musculus)"
  pKi: 9.96
- MOLECULE: "C=C[C@@](C)(CCC=C(C)C)c1ccc2c3c(c[nH]c13)C[C@@H](CO)NC(=O)[C@@H](C(C)C)N2C [compound 1, 12-Epi-lyngbyatoxin A]"
  ASSAYED_SYSTEM: "PKCδ-C1B peptide (Mus musculus)"
  pKi: 7.77

----------
Entries and their measured IC50 follow.
# ASSAY_TEXT: Cytotoxicity assay toward L1210 leukemia cells
# Format: cell-based
# ASSAY_CONDITIONS: mouse

- COMPOUND: "C=C[C@@](C)(CCC=C(C)C)c1ccc2c3c(c[nH]c13)C[C@@H](CO)NC(=O)[C@H](C(C)C)N2C"
  IC50: "8.1 µM"
- COMPOUND: "C=C[C@@](C)(CCC=C(C)C)c1ccc2c3c(c[nH]c13)C[C@@H](CO)NC(=O)[C@@H](C(C)C)N2C [compound 1, 12-Epi-lyngbyatoxin A]"
  IC50: "20.4 µM"
